# Test system: NCI-H522
# Protocol Text: NCI tumour cell line growth inhibition, 48 h
Active and inactive are the calls of the source. No stated cut-off is given here; in the data, active = GI50 up to about 1.1 µM and inactive = higher.
Readout Kind: GI50

Example results:
>>> df
                                   molecule  system_tested  readout_kind      endpoint_result
0  OCC12C3C4C5C3C1C5C42 (centres undefined)       NCI-H522          GI50  > 100 µM (inactive)
1             CCOC(=O)C1=C(NC(C)(C)C)OCC1=O       NCI-H522          GI50  > 100 µM (inactive)
2  CC(=O)Oc1cc(S(=O)(=O)Nc2n[nH]c(Nc3ccc(C)cc3)n2)c(S)cc1Cl       NCI-H522          GI50     92 µM (inactive)
3        CCC1OCCN1C(C)C (centres undefined)       NCI-H522          GI50   85.5 µM (inactive)

Problem: I would be grateful if you could share the reported GI50 for `O=c1nc(NC(c2ccccc2)(c2ccccc2)c2ccccc2)ccn1CCCl` .
Result: 22.8 µM (inactive)

Problem: Cool, now `CC1=C[C@H]([C@H]2C=C(C)C(C(N)=O)=CN2Cc2c(Cl)cccc2Cl)N(Cc2c(Cl)cccc2Cl)C=C1C(N)=O`
Result: 57.1 µM (inactive)

Problem: Cool, now C=C1CC2(CCS(=O)(=O)c3ccccc32)OC1=O (centres undefined)
Result: 2.82 µM (inactive)

---

# System: K562
# Protocol Text: NCI tumour cell line growth inhibition, 48 h
The source made the active and inactive calls. Rule as the data show it: active = GI50 up to about 1.1 µM and inactive = higher. Square brackets hold non-standard residues; d marks the D form. Peptide text beside a SMILES is read from it. pGlu = O=C1CC[C@@H](C(=O)O)N1; Thz = O=C(O)[C@@H]1CSCN1
Allowed answers: active, inactive

As a guide, the following entries are already answered.
Compound	Assigned Label
Cc1c(C)c(C)c(-n2c(=O)n(C)c(=O)n2-c2cc(C(C)(C)C)cc(C(C)(C)C)c2O)c(C)c1C	inactive
CC1CC/C(=C\c2ccc(N(C)C)cc2)C2=C1C(c1ccc(N(C)C)cc1)NC(=S)N2 (stereo unspecified)	inactive
O=C(NNC(=O)c1ccccc1SSc1ccccc1C(=O)NNC(=O)c1ccccc1S)c1ccccc1S	inactive
COC(=O)c1ccc(C)cc1C1CN=NC12Cc1cccc(C)c1C2=O (stereo unspecified)	inactive
FC(F)(F)c1nc(-c2ccccc2)oc1Sc1nnc(Sc2oc(-c3ccccc3)nc2C(F)(F)F)s1	inactive

Problem: Per the assay record, what outcome was assigned to `C[C@@H]1O[C@@H](O[C@H]2CC[C@]3(C=O)[C@H]4CC[C@]5(C)[C@@H](C6=CC(=O)OC6)CC[C@]5(O)[C@@H]4CC[C@]3(O)C2)[C@H](O)[C@H](O)[C@H]1O` ?
Result: active

Problem: Cool, now `CSC(=S)Nc1cc(C)cc(C)n1`
Result: inactive

Problem: Cool, now `CCOc1cc(CCNC)c2c(ccc3ccc(OC)c(O)c32)c1OC`
Result: inactive

Problem: Cool, now O=C1CC[C@@H](C(=O)N2CSC[C@H]2C(=O)O)N1 [PIDOTIMOD] ([pGlu]-[Thz]-OH)
Result: inactive

Problem: Cool, now `O=c1oc2ccccc2cc1/C=N/N1C(=S)N(c2ccccc2)C(=N\c2ccccc2)/C1=N/c1ccccc1`
Result: inactive

Problem: Cool, now COC(=O)C1=C(OC(=O)/C(=C/c2ccccc2)c2ccc(Cl)cc2)C(C(=O)OC)[C@@]2(O)[C@@H](C(=O)OC)[C@H](C)C[C@@H]1[C@@H]2C(=O)OC (stereo partly specified)
Result: inactive

Problem: Cool, now COc1ccc(-c2cc(-c3ccccc3)n(C3OC(COC(C)=O)C(OC(C)=O)C(OC(C)=O)C3OC(C)=O)c(=S)c2C#N)cc1 (stereo unspecified)
Result: inactive

Problem: Cool, now `Cc1n[nH]c(C(F)(F)F)c1/N=N/N1CCOCC1`
Result: active

Problem: Cool, now O=[N+]([O-])c1ccc(N2N=C(c3ccc(NCc4nc5ccccc5[nH]4)cc3)CC2c2ccco2)cc1 (stereo unspecified)
Result: inactive

Problem: Cool, now `CCCCC/N=C/c1c(O)c(O)c(C(C)C)c2cc(C)c(-c3c(C)cc4c(C(C)C)c(O)c(O)c(/C=N/CCCCC)c4c3O)c(O)c12`
Result: inactive

Problem: Cool, now `COc1ccc(/N=C(C)/C(C)=N/c2ccc(OC)cc2)cc1`
Result: inactive

Problem: Cool, now CC(=O)NNC1=NN(C(C)=O)C2(S1)C(=O)Nc1ccc(Br)cc12 (stereo unspecified)
Result: inactive

Problem: Cool, now `COc1ccc(C2=NNC(=O)c3ccccc3N2c2nc(-c3cccs3)nc3ccc(Br)cc23)cc1`
Result: inactive

Problem: Cool, now `NC(=O)C(N)=O`
Result: inactive

Problem: Cool, now CN1C(=O)CCC1c1ccc2c(c1)oc(=O)n2C (stereo unspecified)
Result: inactive

Problem: Cool, now `C[C@]12CC[C@H](O)CC1=CC[C@@H]1[C@@H]2CC[C@]2(C)C(=N/O)/C(=C/c3ccc([N+](=O)[O-])cc3)C[C@@H]12`
Result: inactive

Problem: Cool, now `OCCCCCCOc1ccc(-c2cc(-c3ccccn3)nc(-c3ccccn3)c2)cc1`
Result: active

Problem: Cool, now `O=[N+]([O-])c1ccc2nc(Cl)n[n+]([O-])c2c1`
Result: inactive

Problem: Cool, now `CN(C)c1nc2oc(-c3ccccc3)c(-c3ccccc3)c2c2nnnn12`
Result: inactive

Problem: Cool, now `CN(CCO)Cc1ncccc1O`
Result: active

Problem: Cool, now `Cc1n(Cc2ccccc2)c2c([n+]1C)C(=O)c1ccccc1C2=O`
Result: active

---

Each item that follows carries a reported GI50.
# Test system: COLO 205
# Protocol Text: NCI tumour cell line growth inhibition, 48 h
Active and inactive are the calls of the source. No stated cut-off is given here; in the data, active = GI50 up to about 1.1 µM and inactive = higher.

Example results:
>>> print(df.to_string())
                                   compound  system_tested      endpoint_result
0  [N-]=[N+]=Nc1ccc(S(=O)(=O)Oc2cc(OS(=O)(=O)c3ccc(N=[N+]=[N-])cc3)cc(OS(=O)(=O)c3ccc(N=[N+]=[N-])cc3)c2)cc1       COLO 205   > 10 µM (inactive)
1  [O-][S+]1SC(=S)C2C=CC=CC21 (centres undefined)       COLO 205  > 100 µM (inactive)
2  CSc1c(C(=O)Nc2ccc(Cl)cc2)c(N)n(N)c(=O)c1C#N       COLO 205  > 100 µM (inactive)

Now for another entry.
Problem: I would be grateful if you could share the reported GI50 for COc1ccc(N2C(=O)CSC2c2cc(OC)c(OC)c(OC)c2)cc1 (centres undefined) .
Result: 25.4 µM (inactive)

---

Each item that follows carries a reported GI50.
# Test system: NCI-H23
# Protocol Text: NCI tumour cell line growth inhibition, 48 h
The source made the active and inactive calls. Rule as the data show it: active = GI50 up to about 1.1 µM and inactive = higher.

                       molecule  readout_kind     endpoint_result
0  O=C1C=CC(=O)c2c(Cl)ccc(O)c21          GI50  12.4 µM (inactive)

Problem: I would be grateful if you could share the reported GI50 for `COc1ccc2oc3cccc(NCCN(C)C)c3c(=O)c2c1` .
Result: 17.7 µM (inactive)

Problem: Cool, now `Cc1c2c(c(C)n1-c1ccccc1)C(=O)N(CCSC(=N)N)C2=O`
Result: 4.85 µM (inactive)

Problem: Cool, now `O=C(Nc1ccccc1[N+](=O)[O-])c1ccccc1`
Result: > 100 µM (inactive)

Problem: Cool, now `NC(=O)C(N)=O`
Result: > 100 µM (inactive)

Problem: Cool, now CCC1CN2CCc3cc(OC)c(OC)cc3C2CC1CC1c2cc(OC)c(OC)cc2CCN1C(=O)C1CCCN1 (stereo unspecified)
Result: 32.5 µM (inactive)

---

# Test system: EKVX
# Protocol Text: NCI tumour cell line growth inhibition, 48 h
The source made the active and inactive calls. Rule as the data show it: active = GI50 up to about 1.1 µM and inactive = higher.
Allowed answers: active, inactive

As a guide, the following entries are already answered.
Compound	Assigned Label
COc1ccc(S(=O)(=O)O)cc1NS(=O)(=O)c1ccc(C)cc1	inactive
O=C1C=C2C(=NC34CCCCC3C(c3ccccc3)C3=C(c5ccccc5CC3)N24)c2ccccc21 (stereo not drawn)	inactive
CCOC(OCC)C(CC)[Se]c1ccccc1 (stereo not drawn)	inactive
C[C@@H]1O[C@@H](O[C@H]2CC[C@]3(C=O)[C@H]4CC[C@]5(C)[C@@H](C6=CC(=O)OC6)CC[C@]5(O)[C@@H]4CC[C@]3(O)C2)[C@H](O)[C@H](O)[C@H]1O	active
Clc1ccc(Nc2nc(Cl)c3nc[nH]c3n2)cc1Cl	inactive
CCOC(=O)c1sc2nc1CSc1sc(=S)sc1SCc1nc(sc1C(=O)OCC)-c1nc(c(C(=O)OCC)s1)CSc1sc(=S)sc1SCc1nc-2sc1C(=O)OCC	inactive
O=C(Nn1c(-c2ccccc2)nc2ccccc2c1=O)c1ccc(CS)cc1	inactive
CC(=O)NC1=C(NCCO)C(=O)c2ccccc2C1=O	inactive
C[C@]12CC[C@H](O)CC1=CC[C@@H]1[C@@H]2CC[C@]2(C)C(=N/O)/C(=C/c3ccc([N+](=O)[O-])cc3)C[C@@H]12	inactive
CCOC(=O)C1S/C(=N\c2cccc(Cl)c2C)N=C1C (stereo not drawn)	inactive

Problem: Per the assay record, what outcome was assigned to `NC(=O)C(N)=O` ?
Result: inactive

Problem: Cool, now `COC(=O)/N=C(\NC(=O)OC)Nc1ccc(Oc2ccccc2)cc1NC=O`
Result: inactive

Problem: Cool, now OCC12C3C4C5C3C1C5C42 (stereo not drawn)
Result: inactive

Problem: Cool, now `C[N+](C)(C)CCC(=O)CC[N+](C)(C)C`
Result: inactive

Problem: Cool, now `O=C(Nc1ccccc1[N+](=O)[O-])c1ccccc1`
Result: inactive

Problem: Cool, now C/C(=N/NC(=O)C[n+]1ccccc1)C(CN(CC(C)C)CC(C)C)C(=O)Nc1ccc(C)cc1C (stereo not drawn)
Result: inactive

Problem: Cool, now `COc1cccc(/C(Cl)=C(\C=O)c2cccc(OC)c2)c1`
Result: inactive

Problem: Cool, now O=C1c2ccccc2N(O)C1(c1ccccc1)C1CCCC=C1N1CCOCC1 (stereo not drawn)
Result: inactive
